Species on record: Rattus norvegicus
method.notes: Displacement of [125I]-triiodothyronine from thyroid hormone receptor in rat liver membrane homogenates assessed as relative T3 displacement incubated for 18 hrs by scintillation counting method relative to control
Format: cell membranes
quantity.kind: relative binding affinity (RBA)

smiles=Oc1c(Br)cc(/C=C/c2ccccc2I)cc1Br recorded_measurement=0.55
smiles=Oc1ccccc1/C=C/c1cc(Br)c(O)c(Br)c1 recorded_measurement=0.22
smiles=Oc1c(Br)cc(-c2nc3cccc(Cl)c3o2)cc1Br recorded_measurement=0.62
smiles=Nc1ccccc1/C=C/c1cc(Br)c(O)c(Br)c1 recorded_measurement=0.15

A = Cc1cc(C)cc(-c2cccc3oc4ccccc4c23)c1
B = Cc1cc(C)cc(Nc2cccc3oc4ccccc4c23)c1
Could you tell me which of these two has the smaller relative binding affinity (RBA) figure? First: A Second: B Choose, then provide that item's label. B

###

Species: Rattus norvegicus
method.notes: Displacement of [125I]-triiodothyronine from thyroid hormone receptor in rat liver membrane homogenates assessed as relative T3 displacement incubated for 18 hrs by scintillation counting method relative to control
Assay type: cell membranes
quantity.kind: relative binding affinity (RBA)

smiles=O=[N+]([O-])c1ccccc1S(=O)(=O)Nc1cc(Cl)c(O)c(Cl)c1 quantity_kind="relative binding affinity (RBA)" recorded_measurement=0.07
smiles=Nc1ccc(/C=C/c2cc(Br)c(N)c(Br)c2)cc1 quantity_kind="relative binding affinity (RBA)" recorded_measurement=0
smiles=COc1ccccc1/C=C/c1cc(Br)c(O)c(Br)c1 quantity_kind="relative binding affinity (RBA)" recorded_measurement=0.32
smiles=Oc1c(Br)cc(/C=C/c2ccc(F)cc2)cc1Br quantity_kind="relative binding affinity (RBA)" recorded_measurement=0.4
smiles=Cc1cccc(CCc2cc(Br)c(O)c(Br)c2)c1 quantity_kind="relative binding affinity (RBA)" recorded_measurement=0.04

a = Cc1cc(CCc2c(Cl)cccc2Cl)cc(C)c1O
b = Cc1cc(C)cc(/C=C/c2cc(Br)c(O)c(Br)c2)c1
# return whichever of a and b has the smaller relative binding affinity (RBA) // output: label of the selected item b

a = Oc1cc(O)cc(/C=C/c2cc(Br)c(O)c(Br)c2)c1
b = Nc1cccc(/C=C/c2cc(Br)c(O)c(Br)c2)c1
Kindly identify which of a and b has the larger recorded relative binding affinity (RBA) value. Lab log: write the label of the selected item as the result. a
(a: 0.66, b: 0)

1 = Oc1c(Br)cc(NCc2ccccc2)cc1Br
2 = COc1cccc(CCc2cc(Br)c(O)c(Br)c2)c1
Please let me know which one, 1 or 2 , has a lower measured relative binding affinity (RBA) value. Returns: label corresponding to the selected item. 1
(1: 0.02, 2: 0.05)

###

Species: Rattus norvegicus
method.notes: Displacement of [125I]-triiodothyronine from thyroid hormone receptor in rat liver membrane homogenates incubated for 18 hrs by scintillation counting method
Assay type: cell membranes
Parameters: concentration or dose not given beside the values
condition.details: concentration not given here
quantity.kind: inhibition (%)

Use the examples below as a reference point.
smiles=Cc1cc(CCc2c(Cl)cccc2Cl)cc(C)c1O quantity_kind=inhibition output_unit=% recorded_measurement=40
smiles=Cc1ccccc1/C=C/c1cc(Br)c(O)c(Br)c1 quantity_kind=inhibition output_unit=% recorded_measurement=44

A = Oc1ccc(/C=C/c2cc(Br)c(O)c(Br)c2)cc1
B = COc1cccc(/C=C/c2cc(Br)c(N)c(Br)c2)c1
C = Cc1cccc(C)c1CCc1cc(Br)c(O)c(Br)c1
Arrange the 3 compounds from largest to smallest inhibition. Returns: the labels listed in the requested order. A, C, B
